# Study Target: MAP4K1 (HPK1) (Homo sapiens (Human))
# Sequence (Q92918 whole entry): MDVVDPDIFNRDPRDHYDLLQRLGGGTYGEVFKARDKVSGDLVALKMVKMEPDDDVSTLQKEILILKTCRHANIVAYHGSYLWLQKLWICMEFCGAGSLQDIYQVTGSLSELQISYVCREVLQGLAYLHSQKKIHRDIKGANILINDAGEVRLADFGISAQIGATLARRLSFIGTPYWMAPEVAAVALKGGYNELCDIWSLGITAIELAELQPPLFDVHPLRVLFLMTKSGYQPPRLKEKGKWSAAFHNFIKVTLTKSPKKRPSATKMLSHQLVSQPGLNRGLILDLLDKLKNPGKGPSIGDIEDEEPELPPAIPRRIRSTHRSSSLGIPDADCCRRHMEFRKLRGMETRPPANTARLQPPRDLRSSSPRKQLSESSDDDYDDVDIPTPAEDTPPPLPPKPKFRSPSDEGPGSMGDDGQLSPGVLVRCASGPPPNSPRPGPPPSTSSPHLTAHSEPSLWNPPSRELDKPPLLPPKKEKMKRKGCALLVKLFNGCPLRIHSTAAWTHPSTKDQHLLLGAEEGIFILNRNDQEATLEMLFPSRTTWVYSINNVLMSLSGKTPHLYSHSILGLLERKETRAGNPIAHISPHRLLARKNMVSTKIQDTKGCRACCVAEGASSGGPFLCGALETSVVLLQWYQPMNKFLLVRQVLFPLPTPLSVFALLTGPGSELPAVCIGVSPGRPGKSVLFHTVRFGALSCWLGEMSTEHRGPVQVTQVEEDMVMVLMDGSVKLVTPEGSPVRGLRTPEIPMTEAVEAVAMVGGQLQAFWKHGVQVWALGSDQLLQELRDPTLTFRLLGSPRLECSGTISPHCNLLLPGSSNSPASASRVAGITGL
# Assay Method Text: MAP4K1 (HPK1) biochemical enzymatic activity, electrophoretic mobility shift (EZReader 2), ATP at APPKM (26 μM)
# Measurement Parameters: numeric value
pIC50: −log10 of the molar value.
Reported pIC50 by item:

Compound	pIC50
CC[C@@](C)(N)c1cnc(OC2(C)CC2)c2cnc(Nc3ccc4c(n3)[C@@H](C)C(C)(C)OC4=O)cc12	8.69
CC[C@](C)(N)c1cnc(OC2CC2)c2cnc(Nc3ccc4c(n3)C(C)(C)[C@@H](C)OC4=O)cc12	9.85
COc1ncc(C(C)(C)N)c2cc(Nc3ccc4c(n3)[C@@H](C)[C@@H](C)OC4=O)ncc12 (single isomer, unassigned)	9.07
COC[C@@](C)(N)c1cnc(OC2CC2)c2cnc(Nc3ccc4c(n3)CC(C)(C)OC4=O)cc12	9.32
CNC(C)(C)c1cnc(OC)c2cnc(Nc3ccnc(C(C)(C)F)n3)cc12	8.40
CCCOc1ncc([C@](C)(N)CC)c2cc(Nc3ccc4c(n3)[C@@H](C)[C@H](C)OC4=O)ncc12	9.70
COc1ncc(C(C)(C)N)c2cc(Nc3ccnc(C(C)(C)C)n3)ncc12	9.44
C[C@@H]1OC(=O)c2ccc(Nc3cc4c([C@@](C)(N)C5CC5)cnc(OC5(C)CC5)c4cn3)nc2[C@H]1C	9.80
CC1(C)Cc2nc(Nc3cc4c(C(C)(C)N)cnc(OCC(F)F)c4cn3)ccc2C(=O)O1	9.66
COc1ncc(C(C)(C)N)c2cc(Nc3cnc(C#N)c(C(C)C)n3)ncc12	8.56
C[C@@H]1OC(=O)c2ccc(Nc3cc4c(C(C)(C)N)cnc(OC5CC5)c4cn3)nc2[C@H]1C	9.74
CC(C)(N)c1cnc(OC2CC2)c2cnc(Nc3ccc4c(n3)C3(CC3)C(C)(C)OC4=O)cc12	9.57
C[C@@H]1c2nc(Nc3cc4c([C@](C)(N)C5CC5)cnc(OC5(C)CC5)c4cn3)ccc2C(=O)OC1(C)C	10.00
C[C@@H]1c2nc(Nc3cc4c(C(C)(C)N)cnc(OC5CC5)c4cn3)ccc2C(=O)OC1(C)C	9.96
COc1ncc(C(C)(C)N)c2cc(Nc3ccnc(C(C)(C)F)n3)ncc12	9.04
